Give measured TGI for each item. Keep answers brief.
Tested on: UACC-62 melanoma
Assay: NCI tumour cell line growth inhibition, 48 h

The examples below pair each entry with its known result.
- compound: "CN(C)c1ccc(/C=C(\\NC(=O)c2ccccc2)C(=O)Nc2ccccc2C(=O)O)cc1"
  TGI: "> 100 µM"
- compound: "COc1ccc(-n2c(C)nc3ccc(NC4OCC(O)C(O)C4O)cc3c2=O)cc1 (configuration not stated)"
  TGI: "> 100 µM"
- compound: "CCOC(=O)c1c(C)n2c(=O)cc(C)c3c(OC(C)=O)c(OC(C)=O)cc1c32"
  TGI: "14.4 µM"
- compound: "CC1OC(OC2C(O)COC(OC3C(C)OC(OC4C(OC(=O)[C@]56CCC(C)(C)C[C@@H]5C5=CCC7[C@@]8(C)C[C@H](O)[C@H](OC9OC(CO)C(O)C(OC%10OC(CO)C(O)C(O)C%10O)C9O)[C@@](C)(CO)[C@@H]8CC[C@@]7(C)[C@]5(C)CC6)OCC(O)C4O)C(O)C3OC3OCC(O)C(O)C3O)C2O)C(O)C(O)C1O (some centres not stated)"
  TGI: "12.6 µM"
- compound: "O=c1c2ccccc2c(=O)c2c1cc(Cl)c1[nH]c3c([nH]c12)c(Cl)cc1c(=O)c2ccccc2c(=O)c13"
  TGI: "> 100 µM"

// for each compound in input: emit TGI
1. CNC(C)C(=O)N[C@H](C(=O)N1CCC[C@@H]1CN(CCc1ccccc1)C(=O)C(F)(F)F)[C@H](C)OCC#CC#CCO[C@H](C)[C@H](NC(=O)[C@H](C)NC)C(=O)N1CCC[C@H]1CN(CCc1ccccc1)C(=O)C(F)(F)F (some centres not stated)
2. CSc1ccc2c(cc1=O)C(NC(=O)c1ccc(OC(C)=O)cc1)CCc1cc(O)c(O)c(O)c1-2 (configuration not stated)
3. C/C(=C\CCc1ccoc1)CC/C=C(\C)CCCN1CCC(CO)CC1
4. COc1ccc(-c2cc(/C=C3\C(=O)Nc4ccc(OC)cc43)[nH]n2)cc1
5. Clc1ccc(-c2nn3ncccc3c2-c2ccnc(Nc3ccccc3)n2)cc1
6. O=[N+]([O-])c1cccc2nc3ccccc3c(NCCCN3CCOCC3)c12
7. O=C(N/N=C1/C(=O)c2c3ccccc3cc3cccc1c23)c1cccc(Cl)c1

1: 3.24 µM; 2: 36.3 µM; 3: 3.74 µM; 4: > 100 µM; 5: > 25 µM; 6: 0.0326 µM; 7: > 100 µM
